What log2 fold change of degron read counts was measured for each of the following?
- Assay System: T1, CRBN, Q96SW2;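 also: pooled lentiviral library of zinc finger degron-EGFP fusions in mCherry-positive Jurkat cells, FACS-sorted after compound exposure, with degron abundance counted by next-generation sequencing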
- T1 chain: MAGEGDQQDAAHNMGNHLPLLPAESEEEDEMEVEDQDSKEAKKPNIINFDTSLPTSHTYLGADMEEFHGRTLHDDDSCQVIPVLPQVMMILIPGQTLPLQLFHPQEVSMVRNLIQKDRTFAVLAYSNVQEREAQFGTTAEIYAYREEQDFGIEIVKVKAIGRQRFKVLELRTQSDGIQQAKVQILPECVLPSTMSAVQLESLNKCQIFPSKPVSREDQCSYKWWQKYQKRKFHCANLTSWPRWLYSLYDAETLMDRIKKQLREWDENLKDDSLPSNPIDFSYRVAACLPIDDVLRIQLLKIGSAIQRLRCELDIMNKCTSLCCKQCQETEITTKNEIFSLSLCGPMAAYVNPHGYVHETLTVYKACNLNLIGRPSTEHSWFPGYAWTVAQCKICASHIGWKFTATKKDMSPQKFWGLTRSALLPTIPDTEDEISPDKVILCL
- Method Notes: log2 fold change of degron read counts, EGFP-low vs EGFP+ sorted cells (limma voom), compound-induced degradation; higher = more compound-induced degradation of the degron-EGFP fusion; degrons are variants of IKZF1/3 zinc finger 2; compound dose not given here
- Experimental Conditions: Jurkat; 18 h; compound: compound 19 (5-tert-butyl-thalidomide)
Whole data set: some 8,300 sequences, median “log2 fold change of degron read counts, EGFP-low vs EGFP+ sorted cells (limma voom), compound-induced degradation” near -1.1, cut for the highest 2% near 3.2. Many of the other results were omitted from the sample, so the highest values are more common in it than they were.
Answers are plain numbers.

Sequence Text: FFCEICGHQFTQKGNLLRHIKL [46F_47F_49E_50I_52G_53H_54Q_55F_67L_, Q9UKT9]
Reported Result: -2.47

Sequence Text: FSCDQCGAAFTQKGNLLRHIKL [46F_47S_49D_50Q_52G_53A_54A_55F_67L_, Q9UKT9]
Reported Result: -0.624

Sequence Text: FSCPVCGAPFTQKGNLLRHIKL [46F_47S_49P_50V_52G_53A_54P_55F_67L_, Q9UKT9]
Reported Result: 3.04

Sequence Text: LQCNQCGFICTQKGNLLRHIKL [46L_47Q_49N_50Q_52G_53F_54I_55C_67L_, Q9UKT9]
Reported Result: -2.79

Sequence Text: FLCNQCGHSFTQKGNLLRHIKL [46F_47L_49N_50Q_52G_53H_54S_55F_67L_, Q9UKT9]
Reported Result: -2.63

Sequence Text: FGCPVCGAAFTQKGNLLRHIKL [46F_47G_49P_50V_52G_53A_54A_55F_67L_, Q9UKT9]
Reported Result: 3.32

Sequence Text: FQCDVCGACFTQKGNLLRHIKL [46F_47Q_49D_50V_52G_53A_54C_55F_67L_, Q9UKT9]
Reported Result: -1.14

Sequence Text: LVCNQCGFDCTQKGNLLRHIKL [46L_47V_49N_50Q_52G_53F_54D_55C_67L_, Q9UKT9]
Reported Result: -2.99

Working through the 7 sequences below one at a time, give log2 fold change of degron read counts for each.
1. FCCPVCGAAFTQKGNLLRHIKL [46F_47C_49P_50V_52G_53A_54A_55F_67L_, Q9UKT9]
2. FGCNVCGAEFTQKGNLLRHIKL [46F_47G_49N_50V_52G_53A_54E_55F_67L_, Q9UKT9]
3. FRCEICGRSFTQKGNLLRHIKL [46F_47R_49E_50I_52G_53R_54S_55F_67L_, Q9UKT9]
4. FVCEICGRMFTQKGNLLRHIKL [46F_47V_49E_50I_52G_53R_54M_55F_67L_, Q9UKT9]
5. FICPVCGAAFTQKGNLLRHIKL [46F_47I_49P_50V_52G_53A_54A_55F_67L_, Q9UKT9]
6. FYCPQCGAAFTQKGNLLRHIKL [46F_47Y_49P_50Q_52G_53A_54A_55F_67L_, Q9UKT9]
7. FMCNVCGADFTQKGNLLRHIKL [46F_47M_49N_50V_52G_53A_54D_55F_67L_, Q9UKT9]

Reply text:
1: 3.16; 2: -2.62; 3: -2.18; 4: -2.37; 5: -0.386; 6: 1.03; 7: -2.78

Recorded values, source the supplement of paper PMC12645437.
